Origin of values: PubChem BioAssay

- Protocol: 384-well plate pilot, post-Golgi transport modulator project, inhibition of yeast transport mutant growth (AID 636); further: test concentration not given here
- Measurement context: absorbance 615 nm, about 18 h, hits give high values
Metric name: inhibition (%)
All answers are understood in %, so give the number only.

Molecule	Metric name	Output unit	Meas value
COc1ccc(C(=O)N2CCN(C3CCCCC3)CC2)c(OC)c1	inhibition	%	-2.53
COc1ccc(Cc2nnc3n2N=C(c2cc4ccccc4o2)CS3)cc1OC	inhibition	%	-7.03
Cc1nn(C)c(C)c1NC(=O)CCSc1nc(-c2ccco2)cc(C(F)(F)F)n1	inhibition	%	-2.93
O=C(O)C1C2C=CC(C3CC23)C1C(=O)NCCc1ccccc1 (configuration not stated)	inhibition	%	-5.81
O=C(CN(CC1CCCO1)S(=O)(=O)c1ccc(S(=O)(=O)NC2CC2)cc1)Nc1ccccc1 (configuration not stated)	inhibition	%	-2

Record request: inhibition value, item Cc1nc(SC2C=CS(=O)(=O)C2)n[nH]1 (configuration not stated)
-7.07

I have this molecule here, CC1(C)NC(=O)N(CC(O)CN2CCCCC2)C1=O (configuration not stated) , and I need its recorded inhibition.
-3.73

Request the reported inhibition associated with `Cc1ccccc1NS(=O)(=O)c1ccc(NC(=O)c2ccco2)cc1`
-2.34
